Below, each entry is listed alongside its reported T/C.
Tested on: B6C3F1 mice, B16 melanoma ip, median survival T/C
Test: NCI In Vivo Anticancer Drug Screen. Data for tumor model B16 Melanoma (intraperitoneal) in B6C3F1 mice
Settings: endpoint: median survival time; dose: 12.5 mg/kg/injection; schedule: Q01DX009 (ip); vehicle: saline; higher = longer survival
Description: The antitumor activity of compounds was measured in mice bearing transplantable tumors. Survival or tumor size were measured and the results are expressed as the measurement made in the treated group (T) divided by the measurement made in the vehicle treated control group (C). The tumor model used in this assay is B16 Melanoma (intraperitoneal) in B6C3F1 mice
Inconclusive results and toxic doses are left out.

// known answers, use as guide
Nc1ncn(C2OC(CO)C(O)C2O)c(=O)n1 (stereo not given) = 112 % of control
COc1cc2cc3cc4cc(OC)c(OC)cc4c(C)[n+]3cc2cc1OC (tested in a mixture with another compound) = 106 % of control
CC1(C)COCN1COC1CCCCC1 = 114 % of control

Reported T/C of `O=c1[nH]c(=O)c2nc(-c3cccnc3)cnc2[nH]1` : 92 % of control

Reported T/C of CCC1OC(OC)C=CC1=O (stereo not given) : 106 % of control

---

System: B6C3F1 mice, B16 melanoma ip, median survival T/C
Assay: NCI In Vivo Anticancer Drug Screen. Data for tumor model B16 Melanoma (intraperitoneal) in B6C3F1 mice
Conditions: endpoint: median survival time; dose: 50.0 mg/kg/injection; schedule: Q01DX009 (ip); vehicle: saline with Tween-80
Toxic doses and inconclusive results are not listed. The calls were made as follows: active = survival T/C of 150% or more; inactive = T/C below 125% in these data.
# output must be one of active, inactive

CC1(C)CC2(C)OC2C2(C1)N=NC(=Nc1ccccc1)O2 (configuration not stated) = inactive
ClCc1ccc2ccccc2n1 = inactive

stdin: Which result was noted for this compound in the test: `Cc1cc2nc(Cc3nc4cc(C)c(C)cc4[nH]3)[nH]c2cc1C`
stdout: inactive

stdin: Which result was noted for this compound in the test: O=C(NC(CSSCC(NC(=O)c1ccccc1)C(=O)O)C(=O)O)c1ccccc1 (configuration not stated)
stdout: inactive

---

Tested on: B6C3F1 mice, B16 melanoma ip, median survival T/C
Assay: NCI In Vivo Anticancer Drug Screen. Data for tumor model B16 Melanoma (intraperitoneal) in B6C3F1 mice
Conditions: endpoint: median survival time; dose: 25.0 mg/kg/injection; schedule: Q01DX009 (ip); vehicle: Klucel (hydroxypropylcellulose) (HPC); higher = longer survival
Inconclusive results and toxic doses are left out. Where a SMILES comes first, the peptide text is derived from it.
Below, each entry is listed alongside its reported T/C.

// known answers, use as guide
Cc1nn(CCO)c(C)c1N=[N+]([O-])c1c(C)nn(CCO)c1C = 95 % of control
CC1=C(CCC(=O)O)c2cc3nc(cc4[nH]c(cc5[nH]c(cc1n2)c(C)c5C(C)O)c(C)c4C(C)O)C(C)=C3CCC(=O)O (stereo not drawn) = 104 % of control
O=C(CC(=O)C(F)(F)F)c1csc2ccccc12 = 113 % of control

// T/C (B6C3F1 mice, B16 melanoma ip, median survival T/C) for C=C1CCC2C(c3c(C)c(O)c4c(c31)C(=O)C(C)C4)C2(C)C (stereo not drawn) = 89 % of control

// T/C (B6C3F1 mice, B16 melanoma ip, median survival T/C) for `CCCCCC[C@H]([C@H](C)O)n1cnc2c(N)ncnc21` = 88 % of control

// T/C (B6C3F1 mice, B16 melanoma ip, median survival T/C) for CN1N=C(N)c2cn(C3OC(COP(=O)(O)O)C(O)C3O)c3ncnc1c23 (stereo not drawn) = 93 % of control

// T/C (B6C3F1 mice, B16 melanoma ip, median survival T/C) for CCC1OCC(C(Cl)CCl)O1 (stereo not drawn) = 105 % of control

// T/C (B6C3F1 mice, B16 melanoma ip, median survival T/C) for `C[C@]12CCC(=O)C(O)=C1CC[C@@H]1[C@@H]2CC[C@]2(C)C(=O)CC[C@@H]12` = 97 % of control

// T/C (B6C3F1 mice, B16 melanoma ip, median survival T/C) for COC(=O)C(Cc1ccc(O)cc1)NC(=O)C(Cc1ccccc1)NC(C)=O (stereo not drawn) (Ac-Phe-Tyr-OMe; configuration not given here) = 92 % of control

// T/C (B6C3F1 mice, B16 melanoma ip, median survival T/C) for OC1CCCC2CCC[N-]C12.OC1CCCC2CCC[N-]C12.[Mn+2] (stereo not drawn) = 109 % of control

// T/C (B6C3F1 mice, B16 melanoma ip, median survival T/C) for `CN(C)N=Nc1cn[nH]c1C(N)=O` = 91 % of control

---

Below, each entry is listed alongside its reported T/C.
System: B6C3F1 mice, B16 melanoma ip, median survival T/C
Assay: NCI In Vivo Anticancer Drug Screen. Data for tumor model B16 Melanoma (intraperitoneal) in B6C3F1 mice
Conditions: endpoint: median survival time; dose: 50.0 mg/kg/injection; schedule: Q01DX009 (ip); vehicle: saline with Tween-80; higher = longer survival
Toxic doses and inconclusive results are not listed.

COC(=Nc1ccccc1)SSC(C)C = 88 % of control
Cc1ccc2c(c1)N=C(Nc1ccccc1)N=S2(C)=O (centres undefined) = 96 % of control
COP12(OCCO1)SC(C(F)(F)F)=C(C(F)(F)F)S2 = 104 % of control
Cn1c(=O)c(-c2ccccc2)[n+]([O-])c2ccccc21 = 122 % of control
O=C(Nc1ccc(C2=NCCN2)cc1)c1ccc(C(=O)Nc2ccc(C3=NCCN3)cc2)c(Cl)c1 = 110 % of control

# context switch: different compound, same T/C
// T/C (B6C3F1 mice, B16 melanoma ip, median survival T/C) for `CC(C)(C)OC(=O)NCC(=O)ON1C(=O)CCC1=O` = 100 % of control

---

System: B6C3F1 mice, B16 melanoma ip, median survival T/C
Assay: NCI In Vivo Anticancer Drug Screen. Data for tumor model B16 Melanoma (intraperitoneal) in B6C3F1 mice
Conditions: endpoint: median survival time; dose: 400.0 mg/kg/injection; schedule: Q01DX009 (ip); vehicle: Klucel (hydroxypropylcellulose) (HPC)
Toxic doses and inconclusive results are not listed. The calls were made as follows: active = survival T/C of 150% or more; inactive = T/C below 125% in these data. Where a SMILES comes first, the peptide text is derived from it.
# output must be one of active, inactive

Ic1ccc2c(c1)N(c1ccccc1)c1cc(N=c3ccc4nc5ccc(I)cc5n(-c5ccccc5)c-4c3)ccc1N2 = inactive
CC(OCc1ccccc1)C(NC(=O)OC(C)(C)C)C(=O)O (centres undefined) = inactive
Cc1ccc(NCC2(/N=C/c3ccccc3)OC(CO)C(O)C2O)cc1 (centres undefined) = active
O=c1[nH]c(=O)n(C2CC(O)C(CO)O2)cc1Br (centres undefined) = inactive
CCCCC(NC(=O)CNC(=O)CNC(=O)OCc1ccccc1)C(=O)O (centres undefined) (HELM PEPTIDE1{[O=C(OCc1ccccc1)[*:2]].G.G.[CCCCC(N[*:1])C(=O)O]}$$$$V2.0) = inactive

Please look at the following molecule next.
stdin: Which result was noted for this molecule in the test: `C[C@]12CCC(=O)C=C1CC[C@@H]1[C@@H]2C(=O)C[C@@]2(C)[C@H]1CC[C@]2(O)C(=O)CO`
stdout: inactive

---

Below, each entry is listed alongside its reported T/C.
System: B6C3F1 mice, B16 melanoma ip, median survival T/C
Assay: NCI In Vivo Anticancer Drug Screen. Data for tumor model B16 Melanoma (intraperitoneal) in B6C3F1 mice
Conditions: endpoint: median survival time; dose: 50.0 mg/kg/injection; schedule: Q01DX009 (ip); vehicle: saline; higher = longer survival
Inconclusive results and toxic doses are left out.

O=C1CCC2=C3C4CCCC5OC6CC(=O)CCC6=C(C6CCCC(OC2C1)C36)C54 (stereo unspecified) = 102 % of control
Clc1cc(Cl)c(C[N+]23CN4CN(CN(C4)C2)C3)cc1Cl = 106 % of control
CCCC(=O)O = 93 % of control
C=C1CCOC2(C(O)C(C)(O)CO)NC(=O)C1(O)NC2=O (stereo unspecified) = 97 % of control
[I][Hg][CH2]C1COC([CH2][Hg][I])CO1 (stereo unspecified) = 99 % of control

Reported T/C of CC(N)C(=O)NC(CC(N)=O)C(=O)O (stereo unspecified) : 103 % of control

---

System: B6C3F1 mice, B16 melanoma ip, median survival T/C
Assay: NCI In Vivo Anticancer Drug Screen. Data for tumor model B16 Melanoma (intraperitoneal) in B6C3F1 mice
Details: endpoint: median survival time; dose: 6.25 mg/kg/injection; schedule: Q01DX009 (ip); vehicle: saline with Tween-80; higher = longer survival
Toxic doses and inconclusive results are not listed.
MEASURED_PROPERTY: T/C

// T/C (B6C3F1 mice, B16 melanoma ip, median survival T/C) for `Cc1nn(CCO)c(C)c1N=[N+]([O-])c1c(C)nn(CCO)c1C` = 100 % of control

// T/C (B6C3F1 mice, B16 melanoma ip, median survival T/C) for `C[Si](C)(C)O/C=C1\CCCCC1=O` = 105 % of control

// T/C (B6C3F1 mice, B16 melanoma ip, median survival T/C) for `O/N=C/c1ccccc1O.O/N=C/c1ccccc1O.[Cu]` = 106 % of control

// T/C (B6C3F1 mice, B16 melanoma ip, median survival T/C) for `Clc1ccccc1N1CCN(CCCN2CCN(c3ccccc3Cl)CC2)CC1` = 95 % of control

The measured values listed here are drawn from PubChem BioAssay AID200.
